Values were extracted from patent US20250304620A1.

System: Pseudomonas aeruginosa ATCC 27853
Assay: Injectable formulations on mice infected with peritonitis
Type: in vivo, ICR mice
Settings: 1 mg/kg via tail vein, twice a day for 3 days, observed for 14 d, n = 10
Marks after values point to notes of the source that are not given here. Non-standard residues stand in square brackets, D forms with d. Residues, ends and D or L forms follow the SMILES beside them. dPhe(3,4-F2) = N[C@H](Cc1ccc(F)c(F)c1)C(=O)O; d2Nal = N[C@H](Cc1ccc2ccccc2c1)C(=O)O
// Average survival times (Days) lookup, one value per entry

Need Average survival times (Days) of CC(=O)N[C@H](CCCNC(=N)N)C(=O)N[C@H](CCCCN)C(=O)N[C@H](CC(C)C)C(=O)N[C@H](CC(C)C)C(=O)N[C@H](Cc1ccc2ccccc2c1)C(=O)N[C@H](CCCNC(=N)N)C(=O)N[C@H](CC(C)C)C(=O)N[C@H](CCCCN)C(=O)N[C@H](Cc1ccc2ccccc2c1)C(=O)N[C@H](CCCNC(=N)N)C(=O)N[C@H](CCCNC(=N)N)C(N)=O [LV-22] (Ac-[dR][dK][dL][dL][d2Nal][dR][dL][dK][d2Nal][dR][dR]-NH2) , thanks. 9.6*** Days

CC(=O)N[C@H](CCCNC(=N)N)C(=O)N[C@H](CCCNC(=N)N)C(=O)N[C@H](CC(C)C)C(=O)N[C@H](CC(C)C)C(=O)N[C@H](Cc1ccc2ccccc2c1)C(=O)N[C@H](CCCNC(=N)N)C(=O)N[C@H](CC(C)C)C(=O)N[C@H](CCCNC(=N)N)C(=O)N[C@H](Cc1ccc2ccccc2c1)C(=O)N[C@H](CCCNC(=N)N)C(=O)N[C@H](CCCNC(=N)N)C(N)=O [LV-1] (Ac-[dR][dR][dL][dL][d2Nal][dR][dL][dR][d2Nal][dR][dR]-NH2) , same question. 10.7**** Days

Okay, next one:
Need Average survival times (Days) of CC(=O)N[C@H](CCCCN)C(=O)N[C@H](CCCCN)C(=O)N[C@H](CC(C)C)C(=O)N[C@H](CC(C)C)C(=O)N[C@H](Cc1ccc(F)c(F)c1)C(=O)N[C@H](CCCNC(=N)N)C(=O)N[C@H](CC(C)C)C(=O)N[C@H](CCCCN)C(=O)N[C@H](Cc1ccc(F)c(F)c1)C(=O)N[C@H](CCCNC(=N)N)C(=O)N[C@H](CCCCN)C(N)=O [LV-25] (Ac-[dK][dK][dL][dL][dPhe(3,4-F2)][dR][dL][dK][dPhe(3,4-F2)][dR][dK]-NH2) , thanks. 10.8**** Days

* * *

// MIC Candida utilis ATCC 9950 lookup, one value per entry
Test system: Candida utilis ATCC 9950
Type: cell-based
Excerpt: According to the Standards of Clinical and Laboratory Standards Institute (CLSI) of the USA for antimicrobial drug susceptibility test operation standards, the micronutrient serial twofold dilution method was used further determine MICs of 30 AMPs (S/N: LV-1 to LV-30) 10 clinically common sensitive strains and 6 fungi in clinical practice. The experiment was repeated 5 times in parallel.
Non-standard residues stand in square brackets, D forms with d. Residues, ends and D or L forms follow the SMILES beside them. dPhe(3,4-Cl2) = N[C@H](Cc1ccc(Cl)c(Cl)c1)C(=O)O; dPhe(3,4-F2) = N[C@H](Cc1ccc(F)c(F)c1)C(=O)O; dPhe(4-Br) = N[C@H](Cc1ccc(Br)cc1)C(=O)O; d2Nal = N[C@H](Cc1ccc2ccccc2c1)C(=O)O; dNle = CCCC[C@@H](N)C(=O)O
Please give a number only; it is taken to be in µg/mL.

Consider the worked cases shown below.
Need MIC Candida utilis ATCC 9950 of CC(=O)N[C@H](CCCNC(=N)N)C(=O)N[C@H](CCCCN)C(=O)N[C@H](CC(C)C)C(=O)N[C@H](CC(C)C)C(=O)N[C@H](Cc1ccccc1)C(=O)N[C@H](CCCNC(=N)N)C(=O)N[C@H](CC(C)C)C(=O)N[C@H](CCCCN)C(=O)N[C@H](Cc1ccc2ccccc2c1)C(=O)N[C@H](CCCNC(=N)N)C(=O)N[C@H](CCCCN)C(N)=O [LV-3] (Ac-[dR][dK][dL][dL][dF][dR][dL][dK][d2Nal][dR][dK]-NH2) , thanks. 8

CC(=O)N[C@H](CCCNC(=N)N)C(=O)N[C@H](CCCCN)C(=O)N[C@H](CC(C)C)C(=O)N[C@H](CC(C)C)C(=O)N[C@H](Cc1ccc(Cl)c(Cl)c1)C(=O)N[C@H](CCCCN)C(=O)N[C@H](CC(C)C)C(=O)N[C@H](CCCCN)C(=O)N[C@H](Cc1ccc(Cl)c(Cl)c1)C(=O)N[C@H](CCCCN)C(=O)N[C@H](CCCNC(=N)N)C(N)=O [LV-8] (Ac-[dR][dK][dL][dL][dPhe(3,4-Cl2)][dK][dL][dK][dPhe(3,4-Cl2)][dK][dR]-NH2) , same question. 8

More entries:
Need MIC Candida utilis ATCC 9950 of CC(=O)N[C@H](CCCNC(=N)N)C(=O)N[C@H](CCCCN)C(=O)N[C@H](CC(C)C)C(=O)N[C@H](CC(C)C)C(=O)N[C@H](Cc1ccc(F)c(F)c1)C(=O)N[C@H](CCCCN)C(=O)N[C@H](CC(C)C)C(=O)N[C@H](CCCCN)C(=O)N[C@H](Cc1ccc(F)c(F)c1)C(=O)N[C@H](CCCCN)C(=O)N[C@H](CCCNC(=N)N)C(N)=O [LV-6] (Ac-[dR][dK][dL][dL][dPhe(3,4-F2)][dK][dL][dK][dPhe(3,4-F2)][dK][dR]-NH2) , thanks. 8

CC(=O)N[C@H](CCCCN)C(=O)N[C@H](CCCCN)C(=O)N[C@H](CC(C)C)C(=O)N[C@H](CC(C)C)C(=O)N[C@H](Cc1ccc(Br)cc1)C(=O)N[C@H](CCCNC(=N)N)C(=O)N[C@H](CC(C)C)C(=O)N[C@H](CCCCN)C(=O)N[C@H](Cc1ccc(Br)cc1)C(=O)N[C@H](CCCNC(=N)N)C(=O)N[C@H](CCCCN)C(N)=O [LV-10] (Ac-[dK][dK][dL][dL][dPhe(4-Br)][dR][dL][dK][dPhe(4-Br)][dR][dK]-NH2) , same question. 8

CC(=O)N[C@H](CCCNC(=N)N)C(=O)N[C@H](CCCNC(=N)N)C(=O)N[C@H](CC(C)C)C(=O)N[C@H](CC(C)C)C(=O)N[C@H](Cc1ccc2ccccc2c1)C(=O)N[C@H](CCCNC(=N)N)C(=O)N[C@H](CC(C)C)C(=O)N[C@H](CCCCN)C(=O)N[C@H](Cc1ccc2ccccc2c1)C(=O)N[C@H](CCCNC(=N)N)C(=O)N[C@H](CCCCN)C(N)=O [LV-21] (Ac-[dR][dR][dL][dL][d2Nal][dR][dL][dK][d2Nal][dR][dK]-NH2) , same question. 8

CCCC[C@@H](NC(=O)[C@@H](CCCCN)NC(=O)[C@@H](CCCNC(=N)N)NC(C)=O)C(=O)N[C@H](CCCC)C(=O)N[C@H](Cc1ccc2ccccc2c1)C(=O)N[C@H](CCCNC(=N)N)C(=O)N[C@H](CCCC)C(=O)N[C@H](CCCCN)C(=O)N[C@H](Cc1ccc2ccccc2c1)C(=O)N[C@H](CCCNC(=N)N)C(=O)N[C@H](CCCCN)C(N)=O [LV-12] (Ac-[dR][dK][dNle][dNle][d2Nal][dR][dNle][dK][d2Nal][dR][dK]-NH2) , same question. 16
